# Tested on: Cryptococcus neoformans
# Assay Details: Antimicrobial activity against Cryptococcus neoformans by broth microdilution method
# Assay type: functional
Measured MIC90 of individual entries

Molecule	MIC90
CCc1ccc(C2NC(c3ccc(CC)cc3)C3C(=NOC)C2C(c2ccc(CC)cc2)NC3c2ccc(CC)cc2)cc1 (configuration not stated)	> 128 µg/mL
CON=C1C2C(c3ccccc3C)NC(c3ccccc3C)C1C(c1ccccc1C)NC2c1ccccc1C (configuration not stated)	> 128 µg/mL
CON=C1C2C(c3ccc(C(C)C)cc3)NC(c3ccc(C(C)C)cc3)C1C(c1ccc(C(C)C)cc1)NC2c1ccc(C(C)C)cc1 (configuration not stated)	> 128 µg/mL
ON=C1C2C(c3cccc(Cl)c3)NC(c3cccc(Cl)c3)C1C(c1cccc(Cl)c1)NC2c1cccc(Cl)c1 (configuration not stated)	> 128 µg/mL
COc1ccccc1C1NC(c2ccccc2OC)C2C(=NO)C1C(c1ccccc1OC)NC2c1ccccc1OC (configuration not stated)	32 µg/mL
ON=C1C2C(c3ccc(OCc4ccccc4)cc3)NC(c3ccc(OCc4ccccc4)cc3)C1C(c1ccc(OCc3ccccc3)cc1)NC2c1ccc(OCc2ccccc2)cc1 (configuration not stated)	> 128 µg/mL
CCCCOc1ccc(C2NC(c3ccc(OCCCC)cc3)C3C(=NOC)C2C(c2ccc(OCCCC)cc2)NC3c2ccc(OCCCC)cc2)cc1 (configuration not stated)	32 µg/mL

---

# Test system: Cryptococcus neoformans
# Assay Details: Antimicrobial activity against Cryptococcus neoformans by broth microdilution method
# Assay type: functional
The entries below come with measured MIC90 values attached.
Value Type: MIC90

Compound	Assay Target	Value Type	Measured
CON=C1C2C(c3ccc(Br)cc3)NC(c3ccc(Br)cc3)C1C(c1ccc(Br)cc1)NC2c1ccc(Br)cc1 (stereo not drawn)	Cryptococcus neoformans	MIC90	> 128 µg/mL
CON=C1C2C(c3ccccc3Br)NC(c3ccccc3Br)C1C(c1ccccc1Br)NC2c1ccccc1Br (stereo not drawn)	Cryptococcus neoformans	MIC90	> 128 µg/mL
ON=C1C2C(c3ccc(F)cc3)NC(c3ccc(F)cc3)C1C(c1ccc(F)cc1)NC2c1ccc(F)cc1 (stereo not drawn)	Cryptococcus neoformans	MIC90	128 µg/mL
CON=C1C2C(c3ccc(Cl)cc3)NC(c3ccc(Cl)cc3)C1C(c1ccc(Cl)cc1)NC2c1ccc(Cl)cc1 (stereo not drawn)	Cryptococcus neoformans	MIC90	> 128 µg/mL
CCCCOc1ccc(C2NC(c3ccc(OCCCC)cc3)C3C(=NO)C2C(c2ccc(OCCCC)cc2)NC3c2ccc(OCCCC)cc2)cc1 (stereo not drawn)	Cryptococcus neoformans	MIC90	32 µg/mL
ON=C1C2C(c3ccc(Cl)cc3)NC(c3ccc(Cl)cc3)C1C(c1ccc(Cl)cc1)NC2c1ccc(Cl)cc1 (stereo not drawn)	Cryptococcus neoformans	MIC90	> 128 µg/mL
CON=C1C2C(c3ccc(C)cc3)NC(c3ccc(C)cc3)C1C(c1ccc(C)cc1)NC2c1ccc(C)cc1 (stereo not drawn)	Cryptococcus neoformans	MIC90	> 128 µg/mL
ON=C1C2C(c3ccccc3Br)NC(c3ccccc3Br)C1C(c1ccccc1Br)NC2c1ccccc1Br (stereo not drawn)	Cryptococcus neoformans	MIC90	> 128 µg/mL

---

# System: Aspergillus niger
# Assay Details: Antifungal activity against Aspergillus niger by broth microdilution method
# Assay type: functional
# MIC90 per record follows

Compound	Qualifying Sign	MIC90 / µg/mL
CCCCOc1ccc(C2NC(c3ccc(OCCCC)cc3)C3C(=NOC)C2C(c2ccc(OCCCC)cc2)NC3c2ccc(OCCCC)cc2)cc1 (stereo not drawn)	=	32
CCOc1ccc(C2NC(c3ccc(OCC)cc3)C3C(=NOC)C2C(c2ccc(OCC)cc2)NC3c2ccc(OCC)cc2)cc1 (stereo not drawn)	=	8
ON=C1C2C(c3cccc(Oc4ccccc4)c3)NC(c3cccc(Oc4ccccc4)c3)C1C(c1cccc(Oc3ccccc3)c1)NC2c1cccc(Oc2ccccc2)c1 (stereo not drawn)	>	128
CON=C1C2C(c3cccc(Br)c3)NC(c3cccc(Br)c3)C1C(c1cccc(Br)c1)NC2c1cccc(Br)c1 (stereo not drawn)	>	128
ON=C1C2C(c3cccc(Br)c3)NC(c3cccc(Br)c3)C1C(c1cccc(Br)c1)NC2c1cccc(Br)c1 (stereo not drawn)	>	128
CON=C1C2C(c3ccccc3OC)NC(c3ccccc3OC)C1C(c1ccccc1OC)NC2c1ccccc1OC (stereo not drawn)	=	4
CON=C1C2C(c3ccc(F)cc3)NC(c3ccc(F)cc3)C1C(c1ccc(F)cc1)NC2c1ccc(F)cc1 (stereo not drawn)	=	2
ON=C1C2C(c3ccccc3Cl)NC(c3ccccc3Cl)C1C(c1ccccc1Cl)NC2c1ccccc1Cl (stereo not drawn)	=	8

---

MIC90 values, listed per item
# System: Candida parapsilosis
# Assay Details: Antifungal activity against Candida parapsilosis by broth microdilution method
# Type: functional
# Measurement Conditions: Lodderomyces parapsilosis

Molecule	MIC90
Cc1ccc(C2NC(c3ccc(C)cc3)C3C(=NO)C2C(c2ccc(C)cc2)NC3c2ccc(C)cc2)cc1 (stereo unspecified)	32 µg/mL
CCOc1ccc(C2NC(c3ccc(OCC)cc3)C3C(=NO)C2C(c2ccc(OCC)cc2)NC3c2ccc(OCC)cc2)cc1 (stereo unspecified)	> 128 µg/mL
CON=C1C2C(c3ccccc3Br)NC(c3ccccc3Br)C1C(c1ccccc1Br)NC2c1ccccc1Br (stereo unspecified)	64 µg/mL
COc1ccc(C2NC(c3ccc(OC)cc3)C3C(=NO)C2C(c2ccc(OC)cc2)NC3c2ccc(OC)cc2)cc1 (stereo unspecified)	64 µg/mL
ON=C1C2C(c3ccc(Br)cc3)NC(c3ccc(Br)cc3)C1C(c1ccc(Br)cc1)NC2c1ccc(Br)cc1 (stereo unspecified)	32 µg/mL
CCOc1ccccc1C1NC(c2ccccc2OCC)C2C(=NO)C1C(c1ccccc1OCC)NC2c1ccccc1OCC (stereo unspecified)	> 128 µg/mL
CON=C1C2C(c3cccc(F)c3)NC(c3cccc(F)c3)C1C(c1cccc(F)c1)NC2c1cccc(F)c1 (stereo unspecified)	> 128 µg/mL
CC(C)c1ccc(C2NC(c3ccc(C(C)C)cc3)C3C(=NO)C2C(c2ccc(C(C)C)cc2)NC3c2ccc(C(C)C)cc2)cc1 (stereo unspecified)	32 µg/mL
CON=C1C2C(c3ccccc3OC)NC(c3ccccc3OC)C1C(c1ccccc1OC)NC2c1ccccc1OC (stereo unspecified)	32 µg/mL
CON=C1C2C(c3ccc(Cl)cc3)NC(c3ccc(Cl)cc3)C1C(c1ccc(Cl)cc1)NC2c1ccc(Cl)cc1 (stereo unspecified)	> 128 µg/mL
ON=C1C2C(c3cccc(Br)c3)NC(c3cccc(Br)c3)C1C(c1cccc(Br)c1)NC2c1cccc(Br)c1 (stereo unspecified)	> 128 µg/mL

---

Reported Ratio values are given for each entry in this list.
# System: Klebsiella pneumoniae
# Assay Details: Ratio of compound MIC90 to gentamicin MIC90 for Klebsiella pneumoniae
# Type: functional

Compound	Assay Target	Ratio
CON=C1C2C(c3ccc(SC)cc3)NC(c3ccc(SC)cc3)C1C(c1ccc(SC)cc1)NC2c1ccc(SC)cc1 (stereo not given)	Klebsiella pneumoniae	4
CON=C1C2C(c3ccccc3OC)NC(c3ccccc3OC)C1C(c1ccccc1OC)NC2c1ccccc1OC (stereo not given)	Klebsiella pneumoniae	4
CON=C1C2C(c3ccc(C)cc3)NC(c3ccc(C)cc3)C1C(c1ccc(C)cc1)NC2c1ccc(C)cc1 (stereo not given)	Klebsiella pneumoniae	4
CON=C1C2C(c3ccccc3C)NC(c3ccccc3C)C1C(c1ccccc1C)NC2c1ccccc1C (stereo not given)	Klebsiella pneumoniae	8
CCCOc1ccc(C2NC(c3ccc(OCCC)cc3)C3C(=NOC)C2C(c2ccc(OCCC)cc2)NC3c2ccc(OCCC)cc2)cc1 (stereo not given)	Klebsiella pneumoniae	8

---

# Tested on: Candida parapsilosis
# Assay Details: Antifungal activity against Candida parapsilosis by broth microdilution method
# Type: functional
# Measurement Conditions: Lodderomyces parapsilosis

Compound	Assay Target	MIC90
CCCCOc1ccc(C2NC(c3ccc(OCCCC)cc3)C3C(=NO)C2C(c2ccc(OCCCC)cc2)NC3c2ccc(OCCCC)cc2)cc1 (stereo not drawn)	Candida parapsilosis	> 128 µg/mL
ON=C1C2C(c3ccc(OCc4ccccc4)cc3)NC(c3ccc(OCc4ccccc4)cc3)C1C(c1ccc(OCc3ccccc3)cc1)NC2c1ccc(OCc2ccccc2)cc1 (stereo not drawn)	Candida parapsilosis	> 128 µg/mL
ON=C1C2C(c3cccc(Cl)c3)NC(c3cccc(Cl)c3)C1C(c1cccc(Cl)c1)NC2c1cccc(Cl)c1 (stereo not drawn)	Candida parapsilosis	> 128 µg/mL

---

Quick list: MIC90 per entry.
# Tested on: Candida parapsilosis
# Assay Details: Antifungal activity against Candida parapsilosis by broth microdilution method
# Type: functional
# Measurement Conditions: Lodderomyces parapsilosis

Molecule	Scale Unit	Qualifying Sign	MIC90
OC(Cn1cncn1)(Cn1cncn1)c1ccc(F)cc1F	mg/L	=	2
ON=C1C2C(c3ccc(Cl)cc3)NC(c3ccc(Cl)cc3)C1C(c1ccc(Cl)cc1)NC2c1ccc(Cl)cc1 (stereo not given)	mg/L	=	128
CON=C1C2C(c3ccc(C)cc3)NC(c3ccc(C)cc3)C1C(c1ccc(C)cc1)NC2c1ccc(C)cc1 (stereo not given)	mg/L	=	2
CCCOc1ccc(C2NC(c3ccc(OCCC)cc3)C3C(=NOC)C2C(c2ccc(OCCC)cc2)NC3c2ccc(OCCC)cc2)cc1 (stereo not given)	mg/L	>	128
CON=C1C2C(c3ccc(Br)cc3)NC(c3ccc(Br)cc3)C1C(c1ccc(Br)cc1)NC2c1ccc(Br)cc1 (stereo not given)	mg/L	=	16
CCOc1ccc(C2NC(c3ccc(OCC)cc3)C3C(=NOC)C2C(c2ccc(OCC)cc2)NC3c2ccc(OCC)cc2)cc1 (stereo not given)	mg/L	=	128
CCc1ccc(C2NC(c3ccc(CC)cc3)C3C(=NO)C2C(c2ccc(CC)cc2)NC3c2ccc(CC)cc2)cc1 (stereo not given)	mg/L	=	64
CON=C1C2C(c3ccc(OCc4ccccc4)cc3)NC(c3ccc(OCc4ccccc4)cc3)C1C(c1ccc(OCc3ccccc3)cc1)NC2c1ccc(OCc2ccccc2)cc1 (stereo not given)	mg/L	>	128
C=CCOc1ccc(C2NC(c3ccc(OCC=C)cc3)C3C(=NO)C2C(c2ccc(OCC=C)cc2)NC3c2ccc(OCC=C)cc2)cc1 (stereo not given)	mg/L	=	64
ON=C1C2C(c3ccccc3Br)NC(c3ccccc3Br)C1C(c1ccccc1Br)NC2c1ccccc1Br (stereo not given)	mg/L	>	128
